SYSTEM_TESTED: T1, AIM2HIN (Homo sapiens, UniProt O14862 144-343)
T1 sequence: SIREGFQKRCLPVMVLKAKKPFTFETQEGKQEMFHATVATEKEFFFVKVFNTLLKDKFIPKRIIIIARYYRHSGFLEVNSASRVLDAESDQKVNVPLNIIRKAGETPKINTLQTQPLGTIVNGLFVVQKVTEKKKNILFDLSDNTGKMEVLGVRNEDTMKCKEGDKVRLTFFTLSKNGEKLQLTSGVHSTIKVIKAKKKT
PROTOCOL_DESCRIPTION: fluorescence anisotropy; 160 mM KCl (60 mM KCl for IFI16HinAB); buffer, pH and temperature not given in the available text
ASSAY_CONDITIONS: protein: recombinant
Recorded pKd values for a group of binders are listed next.
In simple prose, pKd is minus the logarithm base ten of a concentration in moles per litre.

60-base ssDNA_T (ssDNA) DNA: TTTCTTTCTTTCTTTCTTTCTTTCTTTCTTTCTTTCTTTCTTTCTTTCTTTCTTTCTTTC :: 6.40
60-base ssDNA_A (ssDNA) DNA: AAAGAAAGAAAGAAAGAAAGAAAGAAAGAAAGAAAGAAAGAAAGAAAGAAAGAAAGAAAG :: 5.57
60-bp DNA:RNA hybrid (DNA:RNA) DNA: TAAGACACGATGCGATAAAATCTGTTTGTAAAATTTATTAAGGGTACAAATTGCCCTAGC RNA: GCUAGGGCAAUUUGUACCCUUAAUAAAUUUUACAAACAGAUUUUAUCGCAUCGUGUCUUA :: 6.10

Consider the binder 60-bp dsDNA (dsDNA) DNA 1: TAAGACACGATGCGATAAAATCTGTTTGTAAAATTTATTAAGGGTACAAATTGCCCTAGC DNA 2: GCTAGGGCAATTTGTACCCTTAATAAATTTTACAAACAGATTTTATCGCATCGTGTCTTA and give its recorded pKd.
6.22

Consider the binder 60-base ssRNA_A (ssRNA) RNA: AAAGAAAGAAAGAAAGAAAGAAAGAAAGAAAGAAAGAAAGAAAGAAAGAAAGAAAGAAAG and give its recorded pKd.
5.85

Consider the binder 60-bp dsRNA (dsRNA) RNA 1: UAAGACACGAUGCGAUAAAAUCUGUUUGUAAAAUUUAUUAAGGGUACAAAUUGCCCUAGC RNA 2: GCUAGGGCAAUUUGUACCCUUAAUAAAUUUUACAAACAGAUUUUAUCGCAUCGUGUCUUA and give its recorded pKd.
5.96

Consider the binder 60-base ssRNA_U (ssRNA) RNA: UUUCUUUCUUUCUUUCUUUCUUUCUUUCUUUCUUUCUUUCUUUCUUUCUUUCUUUCUUUC and give its recorded pKd.
6.52

Origin of the recorded values: paper PMC10085679
